Provide the recorded KA for the entries that follow.
biological target: T1, cynomolgus monkey IL-6 (Macaca fascicularis, UniProt P79341); experiment: Surface plasmon resonance (Biacore), cynomolgus monkey IL-6; format: binding; settings: cy/cyno; periplasmic fractions, 29B11 chain shuffled
T1 construct: His
T1 sequence (P79341 28-212): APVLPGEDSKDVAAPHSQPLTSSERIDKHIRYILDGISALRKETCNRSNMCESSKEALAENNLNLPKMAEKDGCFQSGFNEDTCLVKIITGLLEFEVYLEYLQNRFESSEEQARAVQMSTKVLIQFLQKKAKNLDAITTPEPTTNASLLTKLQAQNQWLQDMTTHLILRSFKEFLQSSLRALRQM
Unit M⁻¹ implied. Number only.

The value of KA measured for the molecule 48C10: 29B11 chain shuffled Fab, periplasmic fraction (antibody, listed as Lama glama, V domains shown) VH: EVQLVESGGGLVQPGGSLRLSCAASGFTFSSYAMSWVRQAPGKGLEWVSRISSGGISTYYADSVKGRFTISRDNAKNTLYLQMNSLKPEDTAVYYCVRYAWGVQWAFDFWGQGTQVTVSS VL: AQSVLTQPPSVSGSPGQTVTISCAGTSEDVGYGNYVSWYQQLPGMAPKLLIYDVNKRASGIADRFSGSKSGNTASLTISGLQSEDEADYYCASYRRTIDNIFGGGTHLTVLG turned out to be 4.1e+08

The value of KA measured for the molecule 29B11: antagonistic IL-6-specific Fab clone from immunized llama (antibody, listed as Lama glama, V domains shown) VH: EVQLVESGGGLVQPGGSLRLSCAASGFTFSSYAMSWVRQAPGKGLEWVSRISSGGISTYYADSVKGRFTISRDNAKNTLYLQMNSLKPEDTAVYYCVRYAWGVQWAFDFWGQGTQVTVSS VL: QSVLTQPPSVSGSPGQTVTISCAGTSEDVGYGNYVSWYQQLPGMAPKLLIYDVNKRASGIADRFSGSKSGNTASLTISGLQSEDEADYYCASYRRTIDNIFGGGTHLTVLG turned out to be 1.51e+08

The value of KA measured for the molecule 55H1c: 29B11 chain shuffled Fab, periplasmic fraction (antibody, V domains shown) VH: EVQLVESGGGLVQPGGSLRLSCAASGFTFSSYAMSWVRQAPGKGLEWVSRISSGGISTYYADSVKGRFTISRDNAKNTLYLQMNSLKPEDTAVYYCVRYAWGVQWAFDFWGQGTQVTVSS VL: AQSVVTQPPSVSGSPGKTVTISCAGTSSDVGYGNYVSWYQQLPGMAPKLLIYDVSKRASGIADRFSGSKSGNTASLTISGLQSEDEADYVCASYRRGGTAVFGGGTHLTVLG turned out to be 1.89e+09
